# Target: ErbB2 (UniProt P04626 P04626:23-652)
# Test Summary: SPR; specificity control; printed as about 104 nM, read as 10^4 nM (lost superscript)
# Settings: tags: ThermoFisher

- Binder: "ATK007 (ssRNA, 2'-F on all C and U) RNA: GCGGAAGCGUGCUGGGCCCGGCUUGCAGGUCGCCGAAAUGACCGCACACAUAACCCAGAGGUCGAU"
  Kd: "~10 µM"
- Binder: "ATK001 (ssRNA, 2'-F on all C and U) RNA: GGGAGGACGAUGCGGCCACUGGCUAGGAACUCGAGUACUGGGUGGCAGACGACUCGCCCGA"
  Kd: "~10 µM"
